Data credit: patent US10087144B2

Below is a list of entries, each paired with its recorded % relaxation 30 μM value.
Tested on: rat mesenteric arteries
Assay: Vasoreactivity in rat mesenteric arteries in vitro (relaxation of U46619-contracted vessels, tension myograph)
Settings: 30 μM; U46619-contracted third-order arteries
property: % relaxation 30 μM (%)

compound | property | measured-result
CC(C)C(NC(=O)c1cn(Cc2ccccc2)c2ccc(Br)cc2c1=O)C(=O)O (stereo not drawn) | % relaxation 30 μM | 94
O=C(O)CNC(=O)c1cnc2ccccn2c1=O | % relaxation 30 μM | 17
CC(NC(=O)c1cnc2ccccn2c1=O)C(=O)O (stereo not drawn) | % relaxation 30 μM | 50

---

Test system: rat mesenteric arteries
Test: Vasoreactivity in rat mesenteric arteries in vitro (relaxation of U46619-contracted vessels, tension myograph)
Details: Rattus norvegicus; 10 μM; U46619-contracted third-order arteries

mol | inhibition at 10 µM (%)
O=C(N[C@@H](Cc1ccccc1)C(=O)O)c1cn(Cc2ccccc2)c2ccc(Br)cc2c1=O | 93
O=C(O)CNC(=O)c1cn(Cc2ccccc2Cl)c2ccccc2c1=O | 6
CC(C)C[C@H](NC(=O)c1cn(Cc2ccccc2)c2ccccc2c1=O)C(=O)O | 0
COc1ccc(Cn2cc(C(=O)NCC(=O)O)c(=O)c3ccccc32)cc1 | 8
O=C(N[C@@H](Cc1ccccc1)C(=O)O)c1cn(Cc2ccccc2)c2ccccc2c1=O | 67
Cc1cc(C)cc(Cn2cc(C(=O)NCC(=O)O)c(=O)c3ccccc32)c1 | 12
O=C(O)CNC(=O)c1cn(Cc2cccc(Cl)c2)c2ccccc2c1=O | 43
CC(C)C[C@H](NC(=O)c1cn(Cc2ccccc2)c2ccc(Br)cc2c1=O)C(=O)O | 2
C[C@H](NC(=O)c1cn(Cc2ccccc2)c2ccccc2c1=O)C(=O)O | 20
